- assayTarget: Peroxisome proliferator-activated receptor gamma/Nuclear receptor coactivator 3 (Homo sapiens)
- Sequence (P37231 whole entry): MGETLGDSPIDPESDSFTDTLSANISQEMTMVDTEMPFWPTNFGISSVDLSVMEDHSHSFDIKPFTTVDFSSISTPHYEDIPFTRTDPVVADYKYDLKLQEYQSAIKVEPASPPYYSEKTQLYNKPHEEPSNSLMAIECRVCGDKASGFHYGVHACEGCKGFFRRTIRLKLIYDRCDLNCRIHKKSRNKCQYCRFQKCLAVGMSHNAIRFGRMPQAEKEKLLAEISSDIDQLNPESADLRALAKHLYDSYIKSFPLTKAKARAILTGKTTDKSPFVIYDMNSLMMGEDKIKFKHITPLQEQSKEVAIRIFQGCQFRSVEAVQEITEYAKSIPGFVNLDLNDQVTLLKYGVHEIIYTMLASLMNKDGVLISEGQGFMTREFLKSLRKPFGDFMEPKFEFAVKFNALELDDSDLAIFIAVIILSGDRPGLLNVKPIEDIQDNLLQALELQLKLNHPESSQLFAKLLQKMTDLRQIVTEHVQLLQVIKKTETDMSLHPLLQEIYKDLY
- Sequence (Q9Y6Q9 whole entry, further chain): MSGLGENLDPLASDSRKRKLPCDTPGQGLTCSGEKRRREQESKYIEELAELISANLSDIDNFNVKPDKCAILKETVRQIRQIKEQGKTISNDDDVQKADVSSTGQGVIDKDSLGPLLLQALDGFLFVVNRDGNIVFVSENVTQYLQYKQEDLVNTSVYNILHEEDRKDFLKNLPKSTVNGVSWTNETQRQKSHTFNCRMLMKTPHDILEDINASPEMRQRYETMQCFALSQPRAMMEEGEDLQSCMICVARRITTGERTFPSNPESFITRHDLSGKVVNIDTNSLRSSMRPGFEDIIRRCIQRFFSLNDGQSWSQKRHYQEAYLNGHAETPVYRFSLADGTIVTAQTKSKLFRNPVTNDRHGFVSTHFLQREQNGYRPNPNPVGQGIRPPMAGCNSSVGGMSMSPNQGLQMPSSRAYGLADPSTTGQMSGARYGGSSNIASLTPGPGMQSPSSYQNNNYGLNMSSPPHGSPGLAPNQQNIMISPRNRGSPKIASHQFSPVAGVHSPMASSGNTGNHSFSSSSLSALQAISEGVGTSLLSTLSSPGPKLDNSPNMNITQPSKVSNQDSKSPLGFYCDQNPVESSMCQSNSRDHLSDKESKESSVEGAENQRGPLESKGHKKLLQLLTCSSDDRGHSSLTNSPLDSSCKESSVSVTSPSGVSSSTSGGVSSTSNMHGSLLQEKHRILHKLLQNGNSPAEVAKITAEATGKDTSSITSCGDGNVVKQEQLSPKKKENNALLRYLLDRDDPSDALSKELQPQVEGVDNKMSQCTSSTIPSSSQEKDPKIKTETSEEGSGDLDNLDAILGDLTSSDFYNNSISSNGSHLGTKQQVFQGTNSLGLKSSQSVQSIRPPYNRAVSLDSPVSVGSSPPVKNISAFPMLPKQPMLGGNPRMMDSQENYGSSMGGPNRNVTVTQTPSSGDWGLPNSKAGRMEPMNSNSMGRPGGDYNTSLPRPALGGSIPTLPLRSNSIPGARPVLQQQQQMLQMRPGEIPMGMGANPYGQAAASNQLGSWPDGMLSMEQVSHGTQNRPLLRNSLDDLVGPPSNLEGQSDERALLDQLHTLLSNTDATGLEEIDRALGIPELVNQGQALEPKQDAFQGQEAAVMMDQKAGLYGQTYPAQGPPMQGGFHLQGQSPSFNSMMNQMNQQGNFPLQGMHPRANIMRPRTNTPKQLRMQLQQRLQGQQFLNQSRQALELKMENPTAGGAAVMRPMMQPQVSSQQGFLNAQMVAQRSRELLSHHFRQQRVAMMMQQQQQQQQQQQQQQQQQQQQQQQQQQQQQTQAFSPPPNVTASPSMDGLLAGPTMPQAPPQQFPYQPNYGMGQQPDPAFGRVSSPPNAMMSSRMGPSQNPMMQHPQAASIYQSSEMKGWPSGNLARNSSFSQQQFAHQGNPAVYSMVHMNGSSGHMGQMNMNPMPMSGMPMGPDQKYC
- measurementDescription: TR-FRET dose response biochemical High Throughput Screening assay for agonists of the steroid receptor coactivator 3 (SRC-3) recruitment by the peroxisome proliferator-activated receptor gamma (PPAR gamma): non-selective agonists. [Related pubchem assays: 1301 (Confirmation screen.), 1048 (Primary screen.)]
- Assay type: functional
endpointName: EC50

INSERT INTO measurements (chemsmiles, readoutvalue) VALUES
  ('ClCc1csc(-c2ccccc2Cl)n1', '> 79.4 µM (not active)'),
  ('COC(=O)c1cc(Br)c(=O)n(-c2nccs2)c1', '> 79.4 µM (not active)'),
  ('O=c1c(Cl)c(N2CCN(S(=O)(=O)c3ccc(F)cc3)CC2)cnn1-c1cccc(Cl)c1', '18.7 µM (not active)'),
  ('CC(C)Sc1oc(-c2ccco2)nc1S(=O)(=O)c1ccccc1', '> 79.4 µM (not active)');

* * *

- assayTarget: Ubiquitin-conjugating enzyme E2 N (Homo sapiens, UniProt P61088)
- Sequence (P61088 whole entry): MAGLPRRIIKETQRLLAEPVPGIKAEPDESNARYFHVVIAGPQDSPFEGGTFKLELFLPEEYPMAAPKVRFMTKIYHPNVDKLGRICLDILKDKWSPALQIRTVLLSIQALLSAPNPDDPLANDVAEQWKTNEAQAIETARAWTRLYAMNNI
- Type: functional
Calls of active or inactive are those of the source.
# IC50 per entry
endpointName: IC50

INSERT INTO assay_data (molecule, assaytarget, readoutvalue) VALUES
  ('O=C(NCC1CCN(Cc2ccc(Cl)cc2)CC1)C1CCCN(c2ncnc3c2nc2n3CCCCC2)C1 (centres undefined)', 'Ubiquitin-conjugating enzyme E2 N (Homo sapiens, UniProt P61088)', '8.14 µM (active)'),
  ('O=C(c1cccc(S(=O)(=O)N2CCCC2)c1)N1CCCC(C(F)(F)F)C1 (centres undefined)', 'Ubiquitin-conjugating enzyme E2 N (Homo sapiens, UniProt P61088)', '8.31 µM (active)'),
  ('COc1cc2nc(N3CCNCC3)nc(N)c2cc1OC', 'Ubiquitin-conjugating enzyme E2 N (Homo sapiens, UniProt P61088)', '0.873 µM (active)'),
  ('COc1ccccc1NC(=O)CN1CCC(n2c(C)nc3cc(F)ccc32)CC1', 'Ubiquitin-conjugating enzyme E2 N (Homo sapiens, UniProt P61088)', '1.78 µM (active)');

* * *

- assayTarget: Endoribonuclease toxin MazF (Escherichia coli K-12)
- Sequence (P0AE70 whole entry): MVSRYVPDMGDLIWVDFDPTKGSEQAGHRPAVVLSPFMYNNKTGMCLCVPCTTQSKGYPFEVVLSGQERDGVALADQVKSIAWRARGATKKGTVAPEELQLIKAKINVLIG
- measurementDescription: activation of MazEF endoribonuclease cleavage – biochemical, fluorescence, single-stranded RNA substrate, uHTS hits, dose response (AID 588481)
- Type: functional
Activity calls are given as the source filed them.
endpointName: EC50

INSERT INTO results (chemsmiles, endpointname, readoutvalue) VALUES
  ('COc1ccc2c(c1)c1nc3ccccc3nc1n2CC(=O)OC(C)C', 'EC50', '> 99 µM (inactive)'),
  ('CCCn1c(SCC(=O)Nc2nc3ccccc3s2)nc2c1c(=O)n(C)c(=O)n2C', 'EC50', '> 99 µM (inactive)'),
  ('N#C/C(=C/C1=C(N2CCOCC2)C(=C/c2cccc([N+](=O)[O-])c2)/CC1)C(=O)Nc1ccccc1F', 'EC50', '> 99 µM (inactive)'),
  ('Cn1ncc(/N=C/c2c(O)ccc3ccccc23)c1C(=O)Nc1cccc(Cl)c1', 'EC50', '26.2 µM (inactive)');

* * *

- assayTarget: 72 kDa type IV collagenase (Homo sapiens)
- Sequence (P08253 whole entry): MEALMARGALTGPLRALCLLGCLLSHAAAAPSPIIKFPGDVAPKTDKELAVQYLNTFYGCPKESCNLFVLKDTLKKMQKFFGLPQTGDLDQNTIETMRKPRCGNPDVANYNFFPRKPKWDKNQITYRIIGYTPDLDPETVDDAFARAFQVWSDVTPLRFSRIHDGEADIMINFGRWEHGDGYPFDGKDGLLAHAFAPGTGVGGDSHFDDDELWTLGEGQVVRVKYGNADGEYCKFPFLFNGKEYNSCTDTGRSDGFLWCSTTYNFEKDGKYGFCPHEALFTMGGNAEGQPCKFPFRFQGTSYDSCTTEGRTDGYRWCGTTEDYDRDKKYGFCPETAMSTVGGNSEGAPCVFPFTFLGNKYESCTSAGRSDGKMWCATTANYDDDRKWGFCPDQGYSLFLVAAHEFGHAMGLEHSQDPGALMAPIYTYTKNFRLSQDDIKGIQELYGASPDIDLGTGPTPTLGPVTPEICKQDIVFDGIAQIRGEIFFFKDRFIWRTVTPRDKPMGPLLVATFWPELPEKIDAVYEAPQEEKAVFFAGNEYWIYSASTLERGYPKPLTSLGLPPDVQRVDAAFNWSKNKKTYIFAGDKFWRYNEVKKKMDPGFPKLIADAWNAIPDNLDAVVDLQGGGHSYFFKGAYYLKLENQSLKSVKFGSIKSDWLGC
- measurementDescription: Dose Response validation of uHTS RPN11 inhibitor hits using a MMP-2 Fluorescence assay.
- Format: functional
Active and inactive are the calls of the source.
endpointName: IC50

INSERT INTO assay_data (chemsmiles, assaytarget, readoutvalue) VALUES
  ('COc1ccc(/N=C\c2oc3ccc4ccccc4c3c2O)cc1', '72 kDa type IV collagenase (Homo sapiens)', '> 100 µM (inactive)'),
  ('CN(CC(=O)Nc1ccc(Cl)cc1)C(=O)CCc1nc(O)c2c3c(sc2n1)CCCC3', '72 kDa type IV collagenase (Homo sapiens)', '> 100 µM (inactive)'),
  ('COc1ccc(C(=O)N2C(=S)NC(=O)/C2=C\c2ccc(C)cc2)cc1', '72 kDa type IV collagenase (Homo sapiens)', '23.8 µM (active)'),
  ('Cc1c(OCC(N)=O)ccc2c(-c3ccccc3)cc(=O)oc12', '72 kDa type IV collagenase (Homo sapiens)', '57.2 µM (active)'),
  ('O=C(Nc1ccc(-c2nc3ccccc3s2)c(O)c1)C1=COCCO1', '72 kDa type IV collagenase (Homo sapiens)', '> 100 µM (inactive)'),
  ('Cc1ccc(/C=C(\C#N)C(=O)Nc2c(C)cccc2C)s1', '72 kDa type IV collagenase (Homo sapiens)', '> 100 µM (inactive)');

* * *

- assayTarget: Tyrosine-protein phosphatase non-receptor type 5 (Homo sapiens)
- Sequence (P54829 whole entry): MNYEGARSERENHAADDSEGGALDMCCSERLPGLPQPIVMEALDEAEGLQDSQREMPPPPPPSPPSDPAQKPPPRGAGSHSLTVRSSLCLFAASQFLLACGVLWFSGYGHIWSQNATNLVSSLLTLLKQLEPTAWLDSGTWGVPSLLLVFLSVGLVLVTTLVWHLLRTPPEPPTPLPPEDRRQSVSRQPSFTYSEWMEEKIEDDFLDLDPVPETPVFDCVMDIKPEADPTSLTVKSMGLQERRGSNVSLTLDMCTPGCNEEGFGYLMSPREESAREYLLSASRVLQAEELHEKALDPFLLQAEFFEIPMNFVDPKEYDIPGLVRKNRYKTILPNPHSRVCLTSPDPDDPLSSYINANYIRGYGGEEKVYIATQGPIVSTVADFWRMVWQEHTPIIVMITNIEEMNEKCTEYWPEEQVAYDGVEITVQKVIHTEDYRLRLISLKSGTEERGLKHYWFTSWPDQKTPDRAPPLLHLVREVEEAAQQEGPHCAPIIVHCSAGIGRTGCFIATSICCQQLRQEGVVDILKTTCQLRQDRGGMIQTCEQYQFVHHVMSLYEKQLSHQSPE
- measurementDescription: PTPN5 enzyme inhibition – biochemical, fluorescence intensity, uHTS hits, confirmation (AID 602372)
- Type: functional
- studyConditions: read-out: IC50_Mean
Active and inactive are the calls of the source.
Possible outcomes: Y for active, N for inactive

INSERT INTO assay_data (chemsmiles, category) VALUES
  ('C/C(=N\Nc1ccc(S(N)(=O)=O)cc1[N+](=O)[O-])c1cccs1', 'Y'),
  ('COc1ccc(-n2nc(C(=O)NCC(=O)Nc3ccccn3)c3ccccc3c2=O)cc1Cl', 'N'),
  ('COc1ccccc1NS(=O)(=O)c1cc(NC(=S)NCCN2CCOCC2)ccc1N1CCOCC1', 'Y'),
  ('CCOC(=O)N1CCC(N(CCN(C)C)C(=S)Nc2cc(Cl)ccc2C)CC1', 'N');

* * *

- assayTarget: Aspartyl aminopeptidase (Plasmodium falciparum 3D7, UniProt Q8I2J3)
- Sequence (Q8I2J3 whole entry): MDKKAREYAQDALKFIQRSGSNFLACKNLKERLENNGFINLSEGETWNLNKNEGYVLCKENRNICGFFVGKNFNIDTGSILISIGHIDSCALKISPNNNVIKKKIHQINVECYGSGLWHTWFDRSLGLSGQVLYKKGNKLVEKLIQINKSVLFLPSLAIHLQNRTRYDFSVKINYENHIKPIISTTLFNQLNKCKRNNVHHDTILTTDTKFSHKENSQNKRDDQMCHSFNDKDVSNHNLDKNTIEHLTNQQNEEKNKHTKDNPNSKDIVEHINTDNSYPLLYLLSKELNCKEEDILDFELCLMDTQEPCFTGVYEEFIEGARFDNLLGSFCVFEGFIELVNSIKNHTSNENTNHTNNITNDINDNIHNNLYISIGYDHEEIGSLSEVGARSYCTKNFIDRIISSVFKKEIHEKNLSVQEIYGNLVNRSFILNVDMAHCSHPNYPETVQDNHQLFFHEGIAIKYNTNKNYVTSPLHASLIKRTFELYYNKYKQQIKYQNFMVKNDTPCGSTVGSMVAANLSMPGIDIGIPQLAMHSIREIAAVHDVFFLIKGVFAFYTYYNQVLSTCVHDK
Calls of active or inactive are those of the source.
The following molecules are listed with their measured IC50 values.
endpointName: IC50

INSERT INTO results (chemsmiles, readoutvalue) VALUES
  ('CNCc1ccccc1Sc1ccc(O)c(O)c1', '1890 nM (active)'),
  ('Cc1nc2ccccn2c1C(=O)NNC(=O)Nc1ccccc1', '1050 nM (active)'),
  ('Oc1ccc(O)c(-c2cnns2)c1', '1890 nM (active)'),
  ('Cc1nnc(NNS(=O)(=O)c2ccc(Cl)cc2)[nH]c1=O', '1570 nM (active)'),
  ('O=[N+]([O-])c1cc([N+](=O)[O-])c2cccnc2c1Oc1ccccc1O', '3270 nM (active)'),
  ('O=S(=O)(Nn1cnnc1)c1ccccc1', '3810 nM (active)');

* * *

- measurementDescription: loss of viability in HepG2 cells – cell-based, CellTiter-Glo, cherry-picked, cytotoxicity control for Shn3 inhibitor project, dose response (AID 624134)
- Type: functional
The source made the active and inactive calls.
Consider the following compounds and their measured AC50 readings.
endpointName: AC50

INSERT INTO measurements (chemsmiles, readoutvalue) VALUES
  ('O=C1CCCN2N=C(SCC(=O)Nc3cccc(C(F)(F)F)c3)SC2=N1', '5.46 µM (active)'),
  ('CC(=O)OCCNc1cc(Sc2nc3ccccc3[nH]2)c2nonc2c1[N+](=O)[O-]', '17.5 µM (active)'),
  ('C[C@@H]1CC=C[C@H]2[C@H]1C(=O)N(Cc1ccccc1)[C@H]2c1cccc([N+](=O)[O-])c1', '58.9 µM (active)'),
  ('Cn1c(=O)c2nc(CCCCCCCCc3nc4ccccc4[nH]3)[nH]c2n(C)c1=O', '3.88 µM (active)');

* * *

- assayTarget: UniProtKB G5EF15
- Sequence (G5EF15 whole entry): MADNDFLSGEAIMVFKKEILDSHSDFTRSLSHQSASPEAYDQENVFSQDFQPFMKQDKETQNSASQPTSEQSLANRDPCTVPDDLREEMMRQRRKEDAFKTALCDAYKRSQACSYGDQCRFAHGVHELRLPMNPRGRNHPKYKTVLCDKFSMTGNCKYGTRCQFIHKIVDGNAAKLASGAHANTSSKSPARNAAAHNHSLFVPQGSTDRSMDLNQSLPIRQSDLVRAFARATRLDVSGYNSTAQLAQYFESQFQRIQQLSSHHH
- measurementDescription: disruptors of C. elegans POS-1 RNA interaction – biochemical, fluorescence polarization, dose response (AID 1964);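 also: purified POS-1 fused to maltose binding protein made in E. coli; potency of compounds blocking POS-1 binding to fluorescent RNA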
The source made the active and inactive calls.
endpointName: EC50

INSERT INTO assay_data (compound, readoutvalue) VALUES
  ('CCN(CC)CCN1C(=O)C(O)=C(C(=O)c2cc3cccc(OC)c3o2)C1c1ccc(F)cc1 (centres undefined)', '> 300 µM (not active)'),
  ('Cc1cc(C(=O)O)ccc1-n1c(C)cc(C=C2C(=O)c3ccccc3C2=O)c1C', '> 300 µM (not active)'),
  ('Cc1ccc(/C=C(\C#N)C(=O)Nc2c(C)cccc2C)s1', '> 300 µM (not active)'),
  ('O=C1C2CC=C(Cl)CC2C(=O)N1CC1Cc2ccccc2CO1 (centres undefined)', '23 µM (active)'),
  ('CC(C)N1CCc2c(sc(NC(=O)c3ccc(S(=O)(=O)N(C)CC4CCCO4)cc3)c2C(N)=O)C1 (centres undefined)', '203 µM (active)'),
  ('COc1cc(C(=O)NC(c2ccccc2)c2ccccc2)cc(OC)c1C', '> 300 µM (not active)'),
  ('CNCc1ccccc1Sc1ccc(O)c(O)c1', '34.8 µM (active)'),
  ('Cc1ccc2c(c1)C1C=CCC1C(C(=O)NCCCN1CCOCC1)N2 (centres undefined)', '> 300 µM (not active)'),
  ('CC(=C\c1ccco1)/C=C1/SC(=S)N(CC(=O)O)C1=O', '> 300 µM (not active)');
